assay: HILIC, Merck SeQuant ZIC-HILIC, 25 °C, 0.25 mL/min; A: water + 16 mM ammonium formate; B: acetonitrile + 0.1% formic acid, pH 3; gradient (min/%B) 0/97 2/97 10/70 15/10 17/10 18/97 25/97; details: stereoisomer not certain
Class (required): determined from LC retention time; valid ranges are small value: < 2 min; mid value: ≥ 2 min and < 10 min; large value: ≥ 10 min

Please review the following examples before continuing.
• O=C(O)C(=O)Cc1c[nH]c2ccccc12 [INDOLE-3-PYRUVATE] = small value
• NCC(N)C(=O)O (stereo not drawn) [2-3-DIAMINOPROPIONATE] = large value
• CC(C)=CCNc1ncnc2nc[nH]c12 [N6-(DELTA2-ISOPENTENYL)-ADENINE] = mid value

Ask | Please classify: O=P(O)(O)OCC(O)CO (stereo not drawn) [GLYCEROL 3-PHOSPHATE]
Reply | large value

Ask | Kindly state the category for this compound: CCCCCCCCC=CCCCCCCCC(=O)OCC(O)COP(=O)(O)O (stereo not drawn) [18-1_LysoPA]
Reply | mid value

Ask | # bin lookup: classify CC(CCC(=O)O)C1CCC2C3C(=O)CC4CC(O)CCC4(C)C3CC(O)C12C (stereo not drawn) [5b-cholanic acid-3a-12a-DIOL-7-ONE] by its LC retention time
Reply | mid value

Ask | Note: place this compound into its band. Item: Cc1ncc(CO)c(C(=O)O)c1O [4-PYRIDOXATE]
Reply | mid value

Ask | Place this compound in its band: Nc1ncccc1C(=O)O [2-Aminopyridine-3-carboxylic acid]
Reply | mid value

Ask | Class (by measured LC retention time) for O=C(O)c1cccnc1C(=O)O [QUINOLINATE]
Reply | mid value

Ask | Hi, small favor: classify CC1NC(=O)NC1CCCCCC(=O)O (stereo not drawn) [DETHIOBIOTIN] by its LC retention time when you get a moment.
Reply | mid value

Ask | Sort O=C(O)CNC(=O)c1ccccc1 [HIPPURATE] into one of the categories.
Reply | mid value

Ask | Class label required: O=C(O)c1cccc(O)c1O [2-3-DIHYDROXYBENZOATE]
Reply | mid value

Ask | Form field 'band' for O=C1OC(C(O)CO)C(O)C1O [L-GULONOLACTONE]
Reply | large value

Ask | // bin(item) where item = O=C(O)C(=O)O [OXALATE]
Reply | large value

Ask | Field: class (LC retention time) — entry: CCCCCCCCCCCCCCCC(=O)OCC(O)COP(=O)([O-])OCC[N+](C)(C)C (stereo not drawn) [16-0_LysoPC]
Reply | large value

Ask | Form field 'band' for NC(N)=S [THIOUREA]
Reply | mid value

Ask | Pick a category. Item: Nc1ccccc1C(=O)O [ANTHRANILATE]
Reply | small value

---

test: HILIC, Merck SeQuant ZIC-HILIC, 25 °C, 0.25 mL/min; A: water + 16 mM ammonium formate; B: acetonitrile + 0.1% formic acid, pH 3; gradient (min/%B) 0/97 2/97 10/70 15/10 17/10 18/97 25/97; conditions: stereoisomer not certain
Would you mind labelling by LC retention time? At or over 8 min is label 1, under is label 0.

# count of solved cases: 6
* Cn1cncc1CC(NC(=O)CCN)C(=O)O (stereo unspecified) | label 1
* COC(=O)CCCN [METHYL 4-AMINOBUTYRATE-CH2] | label 1
* CNC(=O)c1cccnc1 [N methyl nicotinamide] | label 0
* CC(C)C(O)C(=O)O (stereo unspecified) | label 0
* O=C(O)c1cccc[n+]1[O-] [Picolinic acid N-oxide] | label 0
* Nc1nc2c(ncn2C2CC(O)C(COP(=O)(O)OP(=O)(O)O)O2)c(=O)[nH]1 (stereo unspecified) | label 1

Ask | Assess whether reported LC retention time for O=c1[nH]cnc2c1ncn2C1OC(CO)C(O)C1O (stereo unspecified) sits at 8 min or higher.
Reply | label 1

Ask | Is reported LC retention time greater than or equal to 8 min here: O=c1ccn(C2OC(COP(=O)(O)OP(=O)(O)O)C(O)C2O)c(=O)[nH]1 (stereo unspecified) [URIDINE 5'-DIPHOSPHATE]
Reply | label 1

Ask | // inclusive: LC retention time at least 8 min? input: C=C(C)C1CCC2(C(=O)O)CCC3(C)C(CCC4C5(C)CCC(O)C(C)(C)C5CCC43C)C12 (stereo unspecified)
Reply | label 0

Ask | Check if LC retention time >= 8 min (inclusive). Item: Nc1ncnc2c1ncn2C1OC(CO)C2OP(=O)(O)OC21 (stereo unspecified) [ADENOSINE 2'-3'-CYCLIC PHOSPHATE]
Reply | label 1

Ask | Hi, just wondering whether O=C([O-])C(O)C(O)C(=O)[O-] (stereo not drawn) [MESO-TARTRATE] shows LC retention time of 8 min or higher.
Reply | label 1

Ask | Does the compound O=C1OC(CO)C(O)C(O)C1O (stereo unspecified) have recorded LC retention time that is 8 min or more?
Reply | label 1

Ask | Is it the case that CCC(O)C(=O)[O-] (stereo unspecified) [2-HYDROXYBUTYRATE] has LC retention time reaching or exceeding 8 min?
Reply | label 0

Ask | Check if LC retention time >= 8 min (inclusive). Item: Cc1ncc(C[n+]2csc(CCOP(=O)(O)O)c2C)c(N)n1 [THIAMINE MONOPHOSPHATE]
Reply | label 1

Ask | Please check the record "NCCCN" and state if its LC retention time is at or above 8 min.
Reply | label 1

Ask | Is the recorded value of LC retention time equal to or greater than 8 min for this compound? Nc1ncnc2c1ncn2C1OC(CO)C(O)C1O (stereo unspecified)
Reply | label 1

Ask | # bool: LC retention time of NC(=O)NC1NC(=O)NC1=O (stereo unspecified) >= 8 min
Reply | label 1

Ask | Does the compound "Cn1cncc1CCN" have recorded LC retention time that is 8 min or more?
Reply | label 1

Ask | Form field: LC retention time at least 8 min? Entry: O=c1c(O)c(-c2ccc(O)c(O)c2)oc2cc(O)cc(O)c12 [quercetine dihydrate]
Reply | label 0

Ask | Quick check: does "CC(C)(CCC(=O)O)C(=O)O" have LC retention time greater than or equal to 8 min?
Reply | label 0

Ask | Test whether the compound C[N+](C)(C)[O-] [trimethylamine N-oxide] records LC retention time of 8 min or higher.
Reply | label 1

Ask | Kindly determine if LC retention time recorded for "O=C(O)CC(CC(=O)O)C(=O)O" is above or exactly 8 min.
Reply | label 1

Ask | Hello, I need to know if O=c1cccc[nH]1 [2-HYDROXYPYRIDINE] has measured LC retention time not below 8 min. Thanks!
Reply | label 0

These data points were gathered from the RepoRT retention time repository.
